test system: Hs 578T cells; assay: Assay 1 cell proliferation measurement, Hs 578T; assay type: cell-based; conditions: Homo sapiens, Breast, read-out: Anti-proliferation IC50 [nM] Hs 578T
Examples of compounds with documented IC50 follow.

Structure smiles string	IC50
Cc1ccc(C2=NNC(=O)OC2)cc1C(F)(F)F	> 100 nM
O=C1NN=C(c2ccc(-c3ccc(Cl)cc3)c(C(F)(F)F)c2)CO1	> 100 nM
C[C@@H]1OC(=O)NN=C1c1ccc(N2CCN(C)CC2)c(C(F)(F)F)c1	> 100 nM

====

Reported values: log10(IC50) for human full length PDE3A (Homo sapiens (Human)), one per item.
Result type: log10(IC50) (log10 of the value in nM)

Molecule	log10(IC50)
Cc1cc(C2=NNC(=O)OC2)ccc1Cl [Intermediate 76]	2.57
COc1ccc(-c2ccc(C3=NNC(=O)O[C@H]3C)cc2C(F)(F)F)cc1 [Example 188]	1.95
O=C1NN=C(c2ccc(-c3ccccc3C(F)F)c(F)c2)CO1 [Example 161]	1.82
CC(C)n1cc(-c2ccc(C3=NNC(=O)OC3)cc2C(F)F)cn1 [Example 263]	1.70
COc1ccccc1-c1ccc(C2=NNC(=O)O[C@H]2C)cc1C(F)(F)F [Example 180]	2.40
Nc1ccccc1-c1ccc(C2=NNC(=O)OC2)cc1F [Example 102]	2.23
Cc1ccc(C2=NNC(=O)OC2)cc1C(F)(F)F [Example 139]	2.15
O=C1NN=C(c2ccc(C3=CC4CCC3C4)c(C(F)(F)F)c2)CO1 (racemic) [Example 154]	1.85
O=C1NN=C(c2ccc(-c3ccncc3)c(F)c2)CO1 [Example 93]	1.70
NC1CCCC(Nc2ccc(C3=NNC(=O)OC3)cc2C(F)(F)F)C1 (mixture of isomers) [Example 322]	2.76
O=C1NN=C(c2ccc(-c3cccc(F)c3)c(F)c2)CO1 [Example 117]	1.89
CNc1ccc(C2=NNC(=O)OC2)cc1C(F)(F)F [Example 276]	1.90

====

molecular target: human full length PDE3A (Homo sapiens (Human))
Sequence (Q14432 whole entry): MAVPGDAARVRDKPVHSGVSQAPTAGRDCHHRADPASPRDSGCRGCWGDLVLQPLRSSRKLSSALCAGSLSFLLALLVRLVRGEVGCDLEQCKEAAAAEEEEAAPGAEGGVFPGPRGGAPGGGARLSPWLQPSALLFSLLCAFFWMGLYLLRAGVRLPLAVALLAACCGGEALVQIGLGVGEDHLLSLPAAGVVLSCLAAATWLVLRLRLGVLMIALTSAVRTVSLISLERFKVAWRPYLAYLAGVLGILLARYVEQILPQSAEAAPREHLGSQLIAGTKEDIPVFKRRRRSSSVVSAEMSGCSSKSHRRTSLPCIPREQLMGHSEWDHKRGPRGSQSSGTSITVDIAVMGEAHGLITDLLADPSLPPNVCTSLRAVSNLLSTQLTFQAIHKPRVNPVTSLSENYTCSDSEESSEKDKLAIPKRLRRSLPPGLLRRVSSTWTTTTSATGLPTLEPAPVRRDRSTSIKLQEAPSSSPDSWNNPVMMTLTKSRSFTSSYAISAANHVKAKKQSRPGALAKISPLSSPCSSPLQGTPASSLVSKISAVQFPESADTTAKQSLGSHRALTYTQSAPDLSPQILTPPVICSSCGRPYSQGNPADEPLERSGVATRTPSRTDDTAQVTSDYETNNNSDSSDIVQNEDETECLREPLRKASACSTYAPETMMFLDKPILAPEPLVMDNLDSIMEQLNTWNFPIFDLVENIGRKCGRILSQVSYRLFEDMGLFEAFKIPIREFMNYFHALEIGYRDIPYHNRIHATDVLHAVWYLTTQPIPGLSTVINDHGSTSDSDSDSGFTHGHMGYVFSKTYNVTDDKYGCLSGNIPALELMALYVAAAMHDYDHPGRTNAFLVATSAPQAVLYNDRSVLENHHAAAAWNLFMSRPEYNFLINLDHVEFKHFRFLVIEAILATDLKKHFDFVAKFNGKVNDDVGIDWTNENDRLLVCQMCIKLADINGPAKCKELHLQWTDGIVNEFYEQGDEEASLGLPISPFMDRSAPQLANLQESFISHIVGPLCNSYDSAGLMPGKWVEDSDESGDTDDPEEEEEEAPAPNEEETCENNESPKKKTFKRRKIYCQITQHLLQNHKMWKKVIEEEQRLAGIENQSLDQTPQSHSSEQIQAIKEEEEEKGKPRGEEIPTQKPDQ
pIC50: −log10 of the molar value.

Compound	Readout qualifier	pIC50
O=C1NN=C(c2ccc(F)c(C(F)(F)F)c2)CO1 [Intermediate 66]	<	6.00
CC(C)(O)CNc1ccc(C2=NNC(=O)OC2)cc1C(F)(F)F	=	6.85
C[C@@H]1OC(=O)NN=C1c1ccc(-n2cnc(C(F)(F)F)c2)c(C(F)(F)F)c1	<	6.00
Nc1cc(-c2ccc(C3=NNC(=O)OC3)cc2C(F)(F)F)ccc1F	=	6.74
CC1OC(=O)NN=C1c1cc(F)c(N2CCOCC2)c(F)c1 (racemic)	=	7.60
O=C1NN=C(c2ccc(N3CCC(F)(F)C3)c(F)c2)CO1	=	6.15
CC(C)=Cc1ccc(C2=NNC(=O)OC2)cc1OC(F)(F)F	=	6.52

====

Reported values: IC50 for human full length PDE3B (Homo sapiens (Human)), one per item.

Compound	Reading unit	IC50
CC1(F)CCN(c2ccc(C3=NNC(=O)OC3)cc2F)CC1 [Example 5]	µM	0.097
O=C1NN=C(c2ccc(N3CCC(F)CC3)c(F)c2)CO1 [Example 6]	µM	0.11
O=C1NN=C(c2ccc(-c3ccc(F)c(F)c3F)c(F)c2)CO1 [Example 99]	µM	0.1
Nc1cccc(-c2ccc(C3=NNC(=O)OC3)cc2F)c1 [Example 91]	µM	0.085
COc1ccc(-c2ccc(C3=NNC(=O)O[C@H]3C)cc2C(F)(F)F)cc1 [Example 188]	µM	0.1
Cn1cc(-c2ccc(C3=NNC(=O)OC3)cc2OC(F)(F)F)cn1 [Example 68]	µM	0.152
CC1(CNc2ccc(C3=NNC(=O)OC3)cc2C(F)(F)F)COC1 [Example 213]	µM	0.071
O=C1NN=C(c2ccc(N3CC[C@H]3CO)c(C(F)(F)F)c2)CO1 [Example 250]	µM	0.12
O=C1NN=C(c2ccc(NCC3CCOC3)c(C(F)(F)F)c2)CO1 (racemic) [Example 245]	µM	0.1
